TEST_NAME: Buffer Stability (37° C.)
PROTOCOL_CONDITIONS: pH 1
The compounds listed here are annotated with their Buffer Stability (37° C.) % Remaining (at 16-23 hours) pH 1.
OUTCOME_MEASURE: Buffer Stability (37° C.) % Remaining (at 16-23 hours) pH 1

>>> result("COc1ccc2c(c1)c(/C=C1\\Oc3cc(OC(=O)OC(C)C)cc(OC(=O)OC(C)C)c3C1=O)cn2CCCN(C)C")
"95%"
>>> result("COc1ccc2[nH]c(-c3ccccc3)c(/C=C3\\Oc4cc(OC(=O)N(C)C)ccc4C3=O)c2c1")
"99%"
>>> result("COc1ccc2c(c1)c(/C=C1\\Oc3cc(O)cc(O)c3C1=O)cn2CCCN(C)C")
"99%"
>>> result("COc1ccc2[nH]c(-c3ccccc3)c(/C=C3\\Oc4cc(OC(=O)C(C)(C)C)cc(OC(=O)C(C)(C)C)c4C3=O)c2c1")
"86%"
>>> result("COc1ccc2c(c1)c(/C=C1\\Oc3cc(OC(=O)CC(C)C)cc(OC(=O)CC(C)C)c3C1=O)cn2CCCN(C)C")
"73%"

---

ASSAY_TARGET: mTOR (Homo sapiens, UniProt P42345)
TEST_NAME: mTOR Enzyme Assay (DELFIA, purified enzyme)
Format: biochemical
Parameters: FLAG
PROTOCOL_CONDITIONS: read-out: mTOR Mean IC50
pIC50: −log10 of the molar value.
OUTCOME_MEASURE: pIC50

>>> result("COc1ccc2c(c1)c(/C=C1\\Oc3cc(OC(=O)N(C(C)C)C(C)C)ccc3C1=O)c(C)n2CCN1CCN(C)CC1")
"< 5.40"
>>> result("COc1ccc2c(c1)c(/C=C1\\Oc3cc(OC(=O)N4CCOCC4)cc(OC(=O)N4CCOCC4)c3C1=O)cn2CCCN(C)C")
"< 5.40"
>>> result("CN(C)C(=O)Oc1cc(OC(=O)N(C)C)c2c(c1)O/C(=C\\c1cn(C)c3nccc(-c4ccccc4)c13)C2=O")
"< 5.40"
>>> result("CNC(=O)Oc1ccc2c(c1)C(=O)/C(=C/c1cn(CCN3CCN(C)CC3)c3ccc(OC)cc13)O2")
"< 5.40"
>>> result("COc1ccc2c(c1)c(/C=C1\\Oc3cc(OC(=O)N(C)C)cc(O)c3C1=O)cn2CCCN(C)C")
"< 4.70"
>>> result("COc1ccc2c(c1)c(/C=C1\\Oc3cc(OC(=O)N(C)c4ccccc4)ccc3C1=O)c(C)n2CCN1CCN(C)CC1")
"< 5.40"
>>> result("COc1ccc2c(c1)c(/C=C1\\Oc3cc(O)cc(OC(=O)N(C)C)c3C1=O)cn2CCCN(C)C")
"< 4.70"
